Biological target: recombinant RSV complex (Human respiratory syncytial virus A, UniProt P28887)
Sequence (P28887 whole entry): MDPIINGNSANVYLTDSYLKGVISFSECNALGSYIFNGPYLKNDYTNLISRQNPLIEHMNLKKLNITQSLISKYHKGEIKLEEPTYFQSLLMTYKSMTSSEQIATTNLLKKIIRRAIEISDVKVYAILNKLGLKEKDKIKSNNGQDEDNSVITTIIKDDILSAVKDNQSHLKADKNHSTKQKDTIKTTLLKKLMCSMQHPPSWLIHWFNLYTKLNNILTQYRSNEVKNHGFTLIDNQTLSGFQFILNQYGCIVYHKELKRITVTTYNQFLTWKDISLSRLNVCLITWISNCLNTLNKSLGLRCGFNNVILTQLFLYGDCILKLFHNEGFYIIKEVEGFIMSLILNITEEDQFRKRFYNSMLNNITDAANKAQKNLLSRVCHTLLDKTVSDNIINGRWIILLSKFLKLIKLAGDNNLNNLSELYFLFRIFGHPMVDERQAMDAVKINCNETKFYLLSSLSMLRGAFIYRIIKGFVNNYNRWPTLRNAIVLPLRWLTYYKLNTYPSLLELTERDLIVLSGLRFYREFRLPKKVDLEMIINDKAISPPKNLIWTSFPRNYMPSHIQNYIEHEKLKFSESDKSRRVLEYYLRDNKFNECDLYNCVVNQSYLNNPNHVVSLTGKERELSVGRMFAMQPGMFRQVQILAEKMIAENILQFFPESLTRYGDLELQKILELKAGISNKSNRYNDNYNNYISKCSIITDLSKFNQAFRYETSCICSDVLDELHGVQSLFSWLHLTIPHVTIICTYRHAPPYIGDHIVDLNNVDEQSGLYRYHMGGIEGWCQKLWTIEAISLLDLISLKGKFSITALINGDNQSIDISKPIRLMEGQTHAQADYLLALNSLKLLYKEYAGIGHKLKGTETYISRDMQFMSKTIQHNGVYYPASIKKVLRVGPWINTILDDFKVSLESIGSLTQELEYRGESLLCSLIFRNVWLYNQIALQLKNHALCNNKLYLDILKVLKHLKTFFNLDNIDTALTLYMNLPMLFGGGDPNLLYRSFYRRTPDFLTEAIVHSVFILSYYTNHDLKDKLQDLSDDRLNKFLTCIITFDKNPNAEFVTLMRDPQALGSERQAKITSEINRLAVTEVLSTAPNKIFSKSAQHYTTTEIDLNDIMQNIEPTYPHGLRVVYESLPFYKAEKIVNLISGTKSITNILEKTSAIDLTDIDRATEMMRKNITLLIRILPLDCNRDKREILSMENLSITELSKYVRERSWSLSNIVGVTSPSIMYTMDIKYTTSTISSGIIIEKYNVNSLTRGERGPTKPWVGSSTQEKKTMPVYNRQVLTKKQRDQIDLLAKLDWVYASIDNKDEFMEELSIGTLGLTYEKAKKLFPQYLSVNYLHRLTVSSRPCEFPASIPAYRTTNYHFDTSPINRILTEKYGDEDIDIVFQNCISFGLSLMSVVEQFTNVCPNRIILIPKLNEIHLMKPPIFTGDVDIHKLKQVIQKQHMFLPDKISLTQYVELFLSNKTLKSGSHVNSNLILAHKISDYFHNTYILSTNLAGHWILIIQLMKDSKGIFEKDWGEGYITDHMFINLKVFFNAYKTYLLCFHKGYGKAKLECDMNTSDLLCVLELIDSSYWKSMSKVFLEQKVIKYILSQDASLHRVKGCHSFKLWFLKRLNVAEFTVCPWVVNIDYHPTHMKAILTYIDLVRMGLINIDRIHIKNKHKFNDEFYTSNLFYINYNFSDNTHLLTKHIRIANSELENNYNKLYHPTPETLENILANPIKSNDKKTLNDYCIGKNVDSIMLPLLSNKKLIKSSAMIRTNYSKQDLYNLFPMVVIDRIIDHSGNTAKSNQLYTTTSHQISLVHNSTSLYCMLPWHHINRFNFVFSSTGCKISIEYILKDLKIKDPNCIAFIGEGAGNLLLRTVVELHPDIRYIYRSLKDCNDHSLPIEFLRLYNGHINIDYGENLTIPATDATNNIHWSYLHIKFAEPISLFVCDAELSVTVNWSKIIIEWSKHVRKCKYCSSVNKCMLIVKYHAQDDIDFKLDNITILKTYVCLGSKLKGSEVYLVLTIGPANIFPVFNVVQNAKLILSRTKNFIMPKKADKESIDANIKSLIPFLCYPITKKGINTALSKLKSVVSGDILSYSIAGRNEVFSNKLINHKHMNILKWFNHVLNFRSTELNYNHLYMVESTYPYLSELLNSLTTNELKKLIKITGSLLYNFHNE
Sequence (P03421 whole entry, further chain): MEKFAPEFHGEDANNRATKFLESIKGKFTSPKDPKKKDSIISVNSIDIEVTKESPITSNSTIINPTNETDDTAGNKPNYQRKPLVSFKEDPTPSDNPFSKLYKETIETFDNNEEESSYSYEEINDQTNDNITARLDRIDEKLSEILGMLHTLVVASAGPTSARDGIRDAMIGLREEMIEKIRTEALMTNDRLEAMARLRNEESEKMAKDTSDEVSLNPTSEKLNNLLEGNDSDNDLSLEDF
Assay: RSV polymerase inhibition assay
Format: biochemical
Conditions: 10 nM recombinant RSV complex, 2 h at 30° C.; Table E = <1 μM, Table F = <50 μM; read-out: IC50
Reported IC50 is given for each of the following compounds.

// below: answered compounds
| compound | test system | IC50 |
| --- | --- | --- |
| C[C@@]1(N)COc2c1cc([C@](O)(CNC(=O)c1cc(OCCO)c3[nH]ccc3c1)C(F)(F)F)nc2-c1ccc(F)cc1 [Compound 124] | recombinant RSV complex (Human respiratory syncytial virus A, UniProt P28887) | < 1000 nM |
| CC1(N)COc2c1cc(C(O)(CNC(=O)c1ccc(CO)c(OC3CC3)c1)C(F)(F)F)nc2-c1ccc(F)cc1 (stereo not drawn) [Compound 22] | recombinant RSV complex (Human respiratory syncytial virus A, UniProt P28887) | < 1000 nM |

--- query ---
Data point: CC[C@]1(N)COc2c1cc([C@](O)(CNC(=O)c1ccc(OC[C@@H](C)O)c(OC)c1)C(F)(F)F)nc2-c1ccc(F)cc1 [Compound 133] ; IC50 = < 1000 nM

====

Target: recombinant RSV complex (Human respiratory syncytial virus A)
Experiment: RSV polymerase inhibition assay
Format: biochemical
Conditions: 10 nM recombinant RSV complex, 2 h at 30° C.; Table E = <1 μM, Table F = <50 μM; read-out: IC50
readout label: IC50

// below: answered compounds
| compound | IC50 |
| --- | --- |
| COc1cc(C(=O)NCC(O)(c2cc3c(c(-c4ccc(F)cc4)n2)OCC32CCN2)C(F)(F)F)ccc1OC[C@@H](C)O (stereo partly drawn) [Compound 108] | < 1 µM |
| COc1cc(C(=O)NCC(O)(c2cc3c(c(-c4ccc(F)cc4)n2)OCCC3(C)N)C(F)(F)F)ccc1OC[C@@H](C)O (stereo partly drawn) [Compound 103] | < 1 µM |

--- query ---
The value of IC50 recorded for COc1cc(C(=O)NC[C@@](O)(c2cc3c(c(-c4ccc(F)cc4)n2)OC[C@@]3(C)NC(C)=N)C(F)(F)F)ccc1OC[C@@H](C)O [Compound 130] when tested on recombinant RSV complex (Human respiratory syncytial virus A) reads < 1 µM

====

Assay: Cytotoxicity determination (CCK-8, without addition of virus)
Assay type: cell-based
Settings: human, HEp-2 cells (uninfected), no virus, Table C = greater than 100 μM, Table D = equal to or less than 100 μM and greater than 10 μM
readout label: CC50 at 5 days

// below: answered molecules
| molecule | endpoint result |
| --- | --- |
| COc1cc(C(=O)NC[C@@](O)(c2cc3c(c(-c4ccc(F)cc4)n2)OC[C@@]3(C)N)C(F)(F)F)cc(OC)c1OCCO | > 100 µM |
| COc1cc(C(=O)NCC(O)(c2cc3c(c(-c4ccc(F)cc4)n2)OCC32CCN2)C(F)(F)F)ccc1OCCO (stereo not drawn) | 10 to 100 µM |
| COc1cc(C(=O)NCC(O)(c2cc3c(c(-c4ccc(F)cc4)n2)OCCC3(C)N)C(F)(F)F)ccc1OCC(C)O (single isomer, unassigned) | 10 to 100 µM |

Data point: COc1cc(C(=O)NCC(O)(c2nc(-c3ccc(F)cc3)cc3c2OC(C)(N)C3)C(F)(F)F)ccc1OC[C@@H](C)O (stereo partly drawn) ; CC50 at 5 days = 10 to 100 µM

Data point: COc1cc(C(=O)NC[C@](O)(c2cc3c(c(-c4ccc(F)cc4)n2)OC[C@]3(N)C2CC2)C(F)(F)F)ccc1OC[C@@H](C)O (single isomer, unassigned) ; CC50 at 5 days = 10 to 100 µM

Data point: COc1cc(C(=O)NCC(O)(c2cc(C3CCNCC3)cc(-c3ccc(F)cc3)n2)C(F)(F)F)ccc1OCCO (stereo not drawn) ; CC50 at 5 days = 10 to 100 µM
